Test system: S. aureus
Assay: Potentiation of bacteriostatic activity of lysostaphin by vehicles (checkered analysis)
Assay type: cell-based, Staphylococcus aureus
Settings: with r-lysostaphin
propertyLabel: Vehicle Conc. w/Max. Potentiation (%)
Reply numerically in %, unit not repeated.

// worked examples, Vehicle Conc. w/Max. Potentiation (%) included
compound	subjectOfTest	Vehicle Conc. w/Max. Potentiation (%)
CCCCCCCCCC(=O)N(C)C[C@H](O)[C@@H](O)[C@H](O)[C@H](O)CO [Decanoyl-n-methylglucamid]	S. aureus	0.078
CCCCCCCC(=O)N(C)C[C@H](O)[C@@H](O)[C@H](O)[C@H](O)CO [Octanoyl-n-methylglucamid]	S. aureus	0.31
CC(=O)OCC(COC(C)=O)OC(C)=O [Triacetin, glyceryl triacetate]	S. aureus	10.0

Continue with the compound presented below.
Query string: Field: Vehicle Conc. w/Max. Potentiation (%) (S. aureus). Entry: CCCCCCCCCCCCOC1O[C@H](CO)[C@@H](O)[C@H](O)[C@H]1O (stereo partly shown) [n-Dodecylglucosid]
Result string: 0.078

* * *

Test: Toxicity of formulations on mammalian cell lines (cell viability, Coulter)
Format: cell-based, murine
Settings: lb/62287 b-cell lymphoma, LB, 6 h, vehicle 0.01%; read-out: Relative Toxicity at 6 Hours
propertyLabel: viability at 6 h

Query string: Query (compound): CCCCCCCC(=O)OCC(O)CO (stereo not shown) [IMWITOR ®, Glyceryl monocaprylate] ; field requested: viability at 6 h
Result string: 50 to 74%

* * *

Test: Toxicity of formulations on mammalian cell lines (cell viability, Coulter)
Assay type: cell-based, murine
Details: lb/62287 b-cell lymphoma, Relative Toxicity at 72 Hours
propertyLabel: viability at 72 h

Query string: Query (molecule): CC(=O)OCC(COC(C)=O)OC(C)=O [Triacetin, glyceryl triacetate] ; field requested: viability at 72 h
Result string: 0 to 24%

* * *

Experiment: Toxicity of formulations on mammalian cell lines (cell viability, Coulter)
Assay type: cell-based, murine
Settings: mouse, a20 cells, Relative Toxicity at 6 Hours
Each record here notes measured viability at 6 h.

Query string: Query (compound): CCCCCCCC(=O)OCC(O)CO (centres unmarked) [IMWITOR ®, Glyceryl monocaprylate] ; field requested: viability at 6 h
Result string: 50 to 74%

Query string: Query (compound): CC(=O)OCC(COC(C)=O)OC(C)=O [Triacetin, glyceryl triacetate] ; field requested: viability at 6 h
Result string: 75 to 90%

* * *

System: S. aureus
Test: Potentiation of bacteriostatic activity of lysostaphin by vehicles (checkered analysis)
Format: cell-based, Staphylococcus aureus
Conditions: with r-lysostaphin
Each record here notes measured Vehicle Conc. w/Max. Potentiation (%).
Reply numerically in %, unit not repeated.

// worked examples, Vehicle Conc. w/Max. Potentiation (%) included
compound	obsValue
CCCCCCCCOC1O[C@H](CO)[C@@H](O)[C@H](O)[C@H]1O (stereo partly shown) [n-Octylglucosid]	0.039
OCC(O)CO [Glycerol]	50.0

Query string: Field: Vehicle Conc. w/Max. Potentiation (%) (S. aureus). Entry: CCCCCCCCCCCCO[C@@H]1O[C@H](CO)[C@@H](O[C@H]2O[C@H](CO)[C@@H](O)[C@H](O)[C@H]2O)[C@H](O)[C@H]1O [Dodecyl B-D-maltosid]
Result string: 0.0024

Query string: Field: Vehicle Conc. w/Max. Potentiation (%) (S. aureus). Entry: CC(O)CO (stereo not shown) [Propylene Glycol]
Result string: 0.195

* * *

Experiment: Toxicity of formulations on mammalian cell lines (cell viability, Coulter)
Type: cell-based, murine
Conditions: lb/62287 b-cell lymphoma, LB, 6 h, vehicle 0.1%; read-out: Relative Toxicity at 6 Hours
propertyLabel: viability at 6 h

Query string: Query (compound): CCCCCCCC(=O)OCC(O)CO (stereo not shown) [IMWITOR ®, Glyceryl monocaprylate] ; field requested: viability at 6 h
Result string: 25 to 49%

* * *

Test: Toxicity of formulations on mammalian cell lines (cell viability, Coulter)
Assay type: cell-based, murine
Settings: lb/62287 b-cell lymphoma, Relative Toxicity at 6 Hours
propertyLabel: viability at 6 h

Query string: Query (compound): CC(=O)OCC(COC(C)=O)OC(C)=O [Triacetin, glyceryl triacetate] ; field requested: viability at 6 h
Result string: 75 to 90%

* * *

Assay: Toxicity of formulations on mammalian cell lines (cell viability, Coulter)
Type: cell-based, murine
Conditions: lb/62287 b-cell lymphoma, LB, 72 h, vehicle 0.1%; read-out: Relative Toxicity at 72 Hours
propertyLabel: viability at 72 h

Query string: Query (molecule): CCCCCCCC(=O)OCC(O)CO (stereo not shown) [IMWITOR ®, Glyceryl monocaprylate] ; field requested: viability at 72 h
Result string: 0 to 24%

* * *

Experiment: in vitro
Type: cell-based, murine
Conditions: mouse, p388.d1 cells, Relative Toxicity at 6 Hours
Method: Cell Lines: A20: B-cell tumor cell line 9C127: T-cell hybridoma cell line LB/62287: B-cell lymphoma cell line P388.D1: Macrophage tumor cell line […] After a 72 hour or 6 hour incubation period, cells are harvested and counted by the Coulter Counter (Northwell Drive, England). Cell viability is determined using a Coulter Channelyzer. […]
propertyLabel: viability at 6 h

Query string: Query (compound): CCCCCCCC(=O)OCC(O)CO (stereo not shown) [IMWITOR ®, Glyceryl monocaprylate] ; field requested: viability at 6 h
Result string: 75 to 90%
